# measured-on: HDAC2 (Homo sapiens)
# Construct: purchased Enzo Life Sciences
# Sequence (Q92769 whole entry): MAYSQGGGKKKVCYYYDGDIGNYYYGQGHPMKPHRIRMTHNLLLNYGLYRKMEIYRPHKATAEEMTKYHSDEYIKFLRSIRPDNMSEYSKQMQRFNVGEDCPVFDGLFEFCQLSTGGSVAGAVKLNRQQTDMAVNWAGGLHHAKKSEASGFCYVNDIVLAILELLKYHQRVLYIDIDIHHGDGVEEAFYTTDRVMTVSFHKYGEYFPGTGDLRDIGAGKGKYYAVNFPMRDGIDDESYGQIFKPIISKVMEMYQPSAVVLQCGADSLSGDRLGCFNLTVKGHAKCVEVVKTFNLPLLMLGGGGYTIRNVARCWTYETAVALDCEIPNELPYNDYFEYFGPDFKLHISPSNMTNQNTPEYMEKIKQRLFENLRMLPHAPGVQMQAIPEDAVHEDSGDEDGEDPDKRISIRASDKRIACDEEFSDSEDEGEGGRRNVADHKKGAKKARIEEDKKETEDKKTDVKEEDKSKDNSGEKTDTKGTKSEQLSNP
# assay: HDAC Inhibition Screening Assay (FLUOR DE LYS Fluorimetric Drug Discovery Kit), HDAC2
# Format: biochemical
# settings: 10 μM compound
readout-kind: inhibition at 10 µM

QUERY: Bench note: what inhibition at 10 µM did O=C(CCCCCCC(=O)Nc1ccc2c(c1)CCC(Cc1cc(C(F)(F)F)cc(C(F)(F)F)c1)C2=O)NO (stereo not shown) [Compound 10] show?
RESULT: > 80%

QUERY: Bench note: what inhibition at 10 µM did O=C(/C=C/c1ccc2c(c1)CCC2NCCc1cc(C(F)(F)F)cc(C(F)(F)F)c1)NO (stereo not shown) [Compound 54] show?
RESULT: > 80%

QUERY: Bench note: what inhibition at 10 µM did Nc1cc(F)ccc1NC(=O)CCCCCCC(=O)NC1CCc2cc(Br)ccc21 (stereo not shown) [Compound 39] show?
RESULT: < 50%

QUERY: Bench note: what inhibition at 10 µM did O=C(/C=C/c1ccc(CNC(=O)COc2ccc3c(c2)CC/C(=C\c2cc(C(F)(F)F)cc(C(F)(F)F)c2)C3=O)cc1)NO [Compound 75] show?
RESULT: < 50%

QUERY: Bench note: what inhibition at 10 µM did O=C(/C=C/c1ccc2c(c1)CC/C(=C\c1cc(C(F)(F)F)cc(C(F)(F)F)c1)C2=O)NO [Compound 7] show?
RESULT: < 50%

QUERY: Bench note: what inhibition at 10 µM did COc1ccc2c(c1)CCC2NC(=O)CCCCCCC(=O)Nc1ccc(F)cc1N (stereo not shown) [Compound 43] show?
RESULT: < 50%

QUERY: Bench note: what inhibition at 10 µM did Nc1cc(F)ccc1NC(=O)c1ccc(COc2ccc3c(c2)CCC(Cc2cc(C(F)(F)F)cc(C(F)(F)F)c2)C3=O)cc1 (stereo not shown) [Compound 67] show?
RESULT: < 50%

QUERY: Bench note: what inhibition at 10 µM did COc1ccc(CCNC2CCc3cc(/C=C/C(=O)Nc4ccc(F)cc4N)ccc32)cc1 (stereo not shown) [Compound 51] show?
RESULT: > 80%

QUERY: Bench note: what inhibition at 10 µM did O=C(CCCCCN(CC(=O)NC1CCc2ccccc21)CC(=O)NC1CCc2ccccc21)NO (stereo not shown) [Compound 45] show?
RESULT: > 80%

QUERY: Bench note: what inhibition at 10 µM did Nc1cc(F)ccc1NC(=O)/C=C/c1ccc(COc2ccc3c(c2)CC/C(=C\c2cc(C(F)(F)F)cc(C(F)(F)F)c2)C3=O)cc1 [Compound 71] show?
RESULT: < 50%

QUERY: Bench note: what inhibition at 10 µM did Cc1[nH]c2ccccc2c1CCNC1CCc2cc(/C=C/C(=O)NO)ccc21 (stereo not shown) [Compound 60] show?
RESULT: > 80%

QUERY: Bench note: what inhibition at 10 µM did CN(C(=O)OCc1cc(C(F)(F)F)cc(C(F)(F)F)c1)C1CCc2ccc(/C=C/C(=O)NO)cc21 (stereo not shown) [Compound 65] show?
RESULT: > 80%

QUERY: Bench note: what inhibition at 10 µM did O=C(/C=C/c1ccc2c(c1)CCC2NCCc1cc(Cl)cc(Cl)c1)NO (stereo not shown) [Compound 55] show?
RESULT: > 80%

QUERY: Bench note: what inhibition at 10 µM did Nc1cc(F)ccc1NC(=O)CCCCCCC(=O)Nc1ccc2c(c1)CCC(Cc1cc(C(F)(F)F)cc(C(F)(F)F)c1)C2=O (stereo not shown) [Compound 9] show?
RESULT: < 50%

QUERY: Bench note: what inhibition at 10 µM did COc1ccc(N2C(=O)CN(C3CCc4cc(/C=C/C(=O)NO)ccc43)C2=O)cc1 (stereo not shown) [Compound 38] show?
RESULT: > 80%

QUERY: Bench note: what inhibition at 10 µM did O=C(/C=C/c1ccc2c(c1)CCC2NC(=O)CCCCCCC(=O)NO)Nc1cc(Cl)cc(Cl)c1 (stereo not shown) [Compound 42] show?
RESULT: 50 to 80%

QUERY: Bench note: what inhibition at 10 µM did COc1ccc2c(c1)CCCC2NC(=O)CCCCCCC(=O)NO (stereo not shown) [Compound 48] show?
RESULT: > 80%

QUERY: Bench note: what inhibition at 10 µM did O=C(/C=C/c1ccc2c(c1)CCC2NC(=O)OCc1cc(C(F)(F)F)cc(C(F)(F)F)c1)NO (stereo not shown) [Compound 15] show?
RESULT: 50 to 80%

QUERY: Bench note: what inhibition at 10 µM did CCN(CC)c1ccc(C(=O)NC2CCc3cc(/C=C/C(=O)NCCCCCC(=O)Nc4ccc(F)cc4N)ccc32)cc1 (stereo not shown) [Compound 29] show?
RESULT: < 50%

QUERY: Bench note: what inhibition at 10 µM did O=C(/C=C/c1ccc(COc2ccc3c(c2)CCCC3=O)cc1)NO [Compound 70] show?
RESULT: > 80%

QUERY: Bench note: what inhibition at 10 µM did O=C(NO)c1ccc(COc2ccc3c(c2)CC(Cc2cc(C(F)(F)F)cc(C(F)(F)F)c2)C3=O)cc1 (stereo not shown) [Compound 77] show?
RESULT: 50 to 80%

QUERY: Bench note: what inhibition at 10 µM did O=C(NO)c1ccc(COc2ccc3c(c2)CCC(Cc2cc(C(F)(F)F)cc(C(F)(F)F)c2)C3=O)cc1 (stereo not shown) [Compound 68] show?
RESULT: < 50%

QUERY: Bench note: what inhibition at 10 µM did O=C(CCCCCCC(=O)Nc1ccc2c(c1)CCCC2O)NO (stereo not shown) [Compound 2] show?
RESULT: > 80%

QUERY: Bench note: what inhibition at 10 µM did O=C(/C=C/c1ccc2c(c1)CCC2N1CC(=O)N(c2cc(Cl)cc(Cl)c2)C1=O)NO (stereo not shown) [Compound 37] show?
RESULT: > 80%

QUERY: Bench note: what inhibition at 10 µM did O=C(CCCCCCC(=O)NC1CCc2cc(Br)ccc21)NO (stereo not shown) [Compound 40] show?
RESULT: > 80%

QUERY: Bench note: what inhibition at 10 µM did O=C(CCCCC(=O)N1CCN(C(=O)c2ccc3c(c2)CC/C(=C\c2cc(C(F)(F)F)cc(C(F)(F)F)c2)C3=O)CC1)NO [Compound 83] show?
RESULT: < 50%

QUERY: Bench note: what inhibition at 10 µM did Nc1cc(F)ccc1NC(=O)CCCCNC(=O)c1ccc2c(c1)CC/C(=C\c1cc(C(F)(F)F)cc(C(F)(F)F)c1)C2=O [Compound 80] show?
RESULT: < 50%

QUERY: Bench note: what inhibition at 10 µM did O=C(/C=C/c1ccc2c(c1)CC/C(=C\c1cc(C(F)(F)F)cc(C(F)(F)F)c1)C2=O)NCCCCCC(=O)NO [Compound 8] show?
RESULT: > 80%

QUERY: Bench note: what inhibition at 10 µM did O=C(/C=C/c1ccc2c(c1)CCC2NCCc1ccc(F)cc1)NO (stereo not shown) [Compound 53] show?
RESULT: > 80%

QUERY: Bench note: what inhibition at 10 µM did COc1ccc(CCNC2CCc3cc(/C=C/C(=O)NO)ccc32)cc1 (stereo not shown) [Compound 52] show?
RESULT: > 80%

QUERY: Bench note: what inhibition at 10 µM did O=C(CCCCCC(=O)Nc1ccc2c(c1)CC/C(=C\c1cc(C(F)(F)F)cc(C(F)(F)F)c1)C2=O)NO [Compound 12] show?
RESULT: > 80%

---

# measured-on: ATX (autotaxin) (Homo sapiens, UniProt Q13822)
# Construct: purchased Cayman 10803
# assay: Autotaxin Inhibition Screening Assay (choline release from LPC, LPC-CR)
# Assay type: biochemical
# settings: 20 μM compound
Provide the recorded inhibition at 20 µM for the entries that follow.

QUERY: Bench note: what inhibition at 20 µM did O=C(CCCCCNC(=O)COc1ccc2c(c1)CC/C(=C\c1cc(C(F)(F)F)cc(C(F)(F)F)c1)C2=O)NO show?
RESULT: > 80%

QUERY: Bench note: what inhibition at 20 µM did COc1ccc(S(=O)(=O)NC2CCc3cc(/C=C/C(=O)NO)ccc32)cc1 (stereo not shown) show?
RESULT: < 50%

QUERY: Bench note: what inhibition at 20 µM did O=C(NO)c1ccc(COc2ccc3c(c2)CCC(Cc2cc(C(F)(F)F)cc(C(F)(F)F)c2)C3=O)cc1 (stereo not shown) show?
RESULT: < 50%

QUERY: Bench note: what inhibition at 20 µM did Nc1cc(F)ccc1NC(=O)CCCCCC(=O)Nc1ccc2c(c1)CC/C(=C\c1cc(C(F)(F)F)cc(C(F)(F)F)c1)C2=O show?
RESULT: > 80%

QUERY: Bench note: what inhibition at 20 µM did O=C(/C=C/c1ccc2c(c1)CCC2NCCc1ccc(F)cc1)NO (stereo not shown) show?
RESULT: < 50%

QUERY: Bench note: what inhibition at 20 µM did CN(C(=O)OCc1cc(C(F)(F)F)cc(C(F)(F)F)c1)C1CCc2ccc(/C=C/C(=O)NO)cc21 (stereo not shown) show?
RESULT: > 80%

QUERY: Bench note: what inhibition at 20 µM did CN(C(=O)OCc1cc(C(F)(F)F)cc(C(F)(F)F)c1)C1CCc2cc(/C=C/C(=O)NO)ccc21 (stereo not shown) show?
RESULT: 50 to 80%

QUERY: Bench note: what inhibition at 20 µM did COc1ccc2c(c1)CCCC2NC(=O)CCCCCCC(=O)Nc1ccc(F)cc1N (stereo not shown) show?
RESULT: < 50%

QUERY: Bench note: what inhibition at 20 µM did COc1ccc2c(c1)CCC2NC(=O)CCCCCCC(=O)Nc1ccc(F)cc1N (stereo not shown) show?
RESULT: < 50%

QUERY: Bench note: what inhibition at 20 µM did O=C(/C=C/c1ccc2c(c1)CCC2NCc1cc(C(F)(F)F)cc(C(F)(F)F)c1)NO (stereo not shown) show?
RESULT: < 50%

QUERY: Bench note: what inhibition at 20 µM did COc1ccc(N2C(=O)CN(C3CCc4cc(/C=C/C(=O)NO)ccc43)C2=O)cc1 (stereo not shown) show?
RESULT: < 50%

QUERY: Bench note: what inhibition at 20 µM did O=C(CCCCCCC(=O)Nc1ccc2c(c1)CC/C(=C\c1cc(C(F)(F)F)cc(C(F)(F)F)c1)C2=O)NO show?
RESULT: > 80%

QUERY: Bench note: what inhibition at 20 µM did O=C(/C=C/c1ccc2c(c1)CCC2NCCc1c[nH]c2ccccc12)NO (stereo not shown) show?
RESULT: < 50%

QUERY: Bench note: what inhibition at 20 µM did Nc1ccccc1NC(=O)c1ccc(COc2ccc3c(c2)CC/C(=C\c2cc(C(F)(F)F)cc(C(F)(F)F)c2)C3=O)cc1 show?
RESULT: < 50%

QUERY: Bench note: what inhibition at 20 µM did Nc1cc(F)ccc1NC(=O)/C=C/c1ccc(COc2ccc3c(c2)CC/C(=C\c2cc(C(F)(F)F)cc(C(F)(F)F)c2)C3=O)cc1 show?
RESULT: < 50%

QUERY: Bench note: what inhibition at 20 µM did COc1ccc2c(c1)CCC2NC(=O)CCCCCCC(=O)NO (stereo not shown) show?
RESULT: < 50%

QUERY: Bench note: what inhibition at 20 µM did COc1ccc(CCNC2CCc3cc(/C=C/C(=O)Nc4ccc(F)cc4N)ccc32)cc1 (stereo not shown) show?
RESULT: < 50%

QUERY: Bench note: what inhibition at 20 µM did COc1ccc(C(=O)NC2CCc3cc(/C=C/C(=O)NO)ccc32)cc1 (stereo not shown) show?
RESULT: < 50%

QUERY: Bench note: what inhibition at 20 µM did Nc1cc(F)ccc1NC(=O)c1ccc(COc2ccc3c(c2)CCC(Cc2cc(C(F)(F)F)cc(C(F)(F)F)c2)C3=O)cc1 (stereo not shown) show?
RESULT: < 50%

QUERY: Bench note: what inhibition at 20 µM did O=C(CCCCCCC(=O)NC1CCCc2cc(Br)ccc21)NO (stereo not shown) show?
RESULT: < 50%

QUERY: Bench note: what inhibition at 20 µM did Nc1cc(F)ccc1NC(=O)/C=C/c1ccc2c(c1)CCC2NC(=O)c1cc(C(F)(F)F)cc(C(F)(F)F)c1 (stereo not shown) show?
RESULT: < 50%

QUERY: Bench note: what inhibition at 20 µM did O=C(CCCCCCC(=O)Nc1ccc2c(c1)CCCC2O)NO (stereo not shown) show?
RESULT: < 50%

QUERY: Bench note: what inhibition at 20 µM did Nc1cc(F)ccc1NC(=O)CCCCCNC(=O)c1ccc2c(c1)CC/C(=C\c1cc(C(F)(F)F)cc(C(F)(F)F)c1)C2=O show?
RESULT: > 80%

QUERY: Bench note: what inhibition at 20 µM did O=C(CCCCCN(CC(=O)NC1CCc2ccccc21)CC(=O)NC1CCc2ccccc21)NO (stereo not shown) show?
RESULT: < 50%

QUERY: Bench note: what inhibition at 20 µM did O=C(/C=C/c1ccc2c(c1)CCC2NCCc1cc(Cl)cc(Cl)c1)NO (stereo not shown) show?
RESULT: < 50%

QUERY: Bench note: what inhibition at 20 µM did COc1ccc(S(=O)(=O)NC2CCc3cc(/C=C/C(=O)Nc4ccc(F)cc4N)ccc32)cc1 (stereo not shown) show?
RESULT: < 50%

QUERY: Bench note: what inhibition at 20 µM did O=C(/C=C/c1ccc2c(c1)CCC2NCCc1cc(C(F)(F)F)cc(C(F)(F)F)c1)NO (stereo not shown) show?
RESULT: < 50%

QUERY: Bench note: what inhibition at 20 µM did Nc1cc(F)ccc1NC(=O)/C=C/c1ccc2c(c1)CCCC2OCc1cc(C(F)(F)F)cc(C(F)(F)F)c1 (stereo not shown) show?
RESULT: < 50%

QUERY: Bench note: what inhibition at 20 µM did CN(C)c1ccc(CCNC2CCc3cc(/C=C/C(=O)NO)ccc32)cc1 (stereo not shown) show?
RESULT: < 50%

QUERY: Bench note: what inhibition at 20 µM did Nc1cc(F)ccc1NC(=O)/C=C/c1ccc2c(c1)CC/C(=C\c1cc(C(F)(F)F)cc(C(F)(F)F)c1)C2=O show?
RESULT: 50 to 80%

QUERY: Bench note: what inhibition at 20 µM did Nc1cc(F)ccc1NC(=O)CCCCCCC(=O)Nc1ccc2c(c1)CCC(Cc1cc(C(F)(F)F)cc(C(F)(F)F)c1)C2=O (stereo not shown) show?
RESULT: < 50%
